Source of measurements: patent US5891882A

- system: α-1A adrenoreceptor (canine prostate smooth muscle) (Canis lupus, UniProt A0A8I3NK63)
- Construct: antagonism of phenylephrine-induced contraction (pA2, Schild)
- Sequence (A0A8I3NK63 1-466): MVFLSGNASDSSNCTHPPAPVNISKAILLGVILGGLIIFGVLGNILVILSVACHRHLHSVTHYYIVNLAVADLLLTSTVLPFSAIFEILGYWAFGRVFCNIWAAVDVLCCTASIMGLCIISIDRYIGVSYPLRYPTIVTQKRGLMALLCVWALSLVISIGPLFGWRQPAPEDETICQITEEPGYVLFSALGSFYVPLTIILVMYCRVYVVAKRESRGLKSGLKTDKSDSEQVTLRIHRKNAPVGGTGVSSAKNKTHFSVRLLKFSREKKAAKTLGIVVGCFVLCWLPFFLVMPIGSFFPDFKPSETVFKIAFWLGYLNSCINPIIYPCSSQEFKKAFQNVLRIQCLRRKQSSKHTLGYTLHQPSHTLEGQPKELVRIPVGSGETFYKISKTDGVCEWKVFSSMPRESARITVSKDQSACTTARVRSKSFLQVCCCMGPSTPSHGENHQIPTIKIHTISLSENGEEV
- assay procedure: Functional antagonism: inhibition of phenylephrine-induced contraction of canine prostate strips
- Format: cell-based
- run parameters: Schild plot
Counter-ions that a name gives are not always drawn.
Reported In Vitro Characterization (pA2) Dog Prostate values for the following compounds.

Would you please look over these solved cases?
[in] What is its In Vitro Characterization (pA2) Dog Prostate for α-1A adrenoreceptor (canine prostate smooth muscle) (Canis lupus, UniProt A0A8I3NK63)? Entry: COc1cccc2c1[C@@H]1CN(CCCCn3c(=O)[nH]c4c(sc5ncc(-c6ccccc6)nc54)c3=O)C[C@H]1CO2 [Example 50, hydrochloride]
[out] 8.45

[in] Same read-out for COc1cccc2c1[C@@H]1CCN(CCCCn3c(=O)[nH]c4c(sc5cccnc54)c3=O)C[C@H]1CO2 (relative stereo) [Example 88, hydrochloride] ?
[out] 8.09

[in] Same read-out for COc1ccc2c(c1)OC[C@H]1CN(CCn3c(=O)[nH]c4c(sc5ccccc54)c3=O)C[C@@H]21.Cl (racemic) [Example 63] ?
[out] 6.65

[in] Same read-out for COc1cccc2c1[C@@H]1CN(CCCCn3c(=O)[nH]c4c(sc5ncc(-c6ccccc6)nc54)c3=O)C[C@@H]1CO2 [Example 39, hydrochloride] ?
[out] 8.52

[in] Same read-out for COc1cccc2c1[C@@H]1CCN(CCCCn3c(=O)[nH]c4c(sc5ncc(Cl)nc54)c3=O)C[C@H]1CO2 [Example 97, dihydrochloride] ?
[out] 8.6

--- query ---
[in] What is its In Vitro Characterization (pA2) Dog Prostate for α-1A adrenoreceptor (canine prostate smooth muscle) (Canis lupus, UniProt A0A8I3NK63)? Entry: COc1cccc2c1[C@H]1CN(CCCCn3c(=O)[nH]c4c(sc5cccnc54)c3=O)C[C@H]1CO2 [Example 2, hydrochloride]
[out] 7.95

----------
- system: α-1 Adrenoceptors (Rat Aorta) (Rattus norvegicus)
- Construct: Rat Aorta; from tissue; host or cells: rat aorta
- Sequence (P23944 whole entry): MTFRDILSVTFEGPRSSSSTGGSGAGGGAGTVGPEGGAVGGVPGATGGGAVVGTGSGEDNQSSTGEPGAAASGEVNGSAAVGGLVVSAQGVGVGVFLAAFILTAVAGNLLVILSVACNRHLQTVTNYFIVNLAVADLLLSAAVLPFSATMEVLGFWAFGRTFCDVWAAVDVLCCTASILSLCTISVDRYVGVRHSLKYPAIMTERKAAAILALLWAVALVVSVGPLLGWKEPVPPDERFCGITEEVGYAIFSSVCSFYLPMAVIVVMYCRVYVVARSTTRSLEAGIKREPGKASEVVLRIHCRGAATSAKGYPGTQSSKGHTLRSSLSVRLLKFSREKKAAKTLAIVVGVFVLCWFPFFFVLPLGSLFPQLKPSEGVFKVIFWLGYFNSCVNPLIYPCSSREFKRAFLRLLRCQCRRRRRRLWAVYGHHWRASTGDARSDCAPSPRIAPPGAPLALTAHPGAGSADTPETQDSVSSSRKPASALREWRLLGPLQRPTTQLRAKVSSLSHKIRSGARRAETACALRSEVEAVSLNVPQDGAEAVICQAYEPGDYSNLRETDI
- assay procedure: Functional antagonism at α-1 adrenoceptors, rat aorta
- Assay type: cell-based
- run parameters: read-out: In Vitro Characterization (pA2) Rat Aorta (converted)
Counter-ions that a name gives are not always drawn.
assay metric: Kb

[in] Give its Kb value. Item: COc1cccc2c1[C@@H]1CN(CCCCn3c(=O)[nH]c4c(sc5ccncc54)c3=O)C[C@H]1CO2 [Example 41, hydrochloride]
[out] 0.017 nM

[in] Same read-out for COc1cccc2c1[C@@H]1CN(CCCCn3c(=O)[nH]c4c(sc5nccc(OC)c54)c3=O)C[C@@H]1CO2 [Example 36, hydrochloride] ?
[out] 0.372 nM

[in] Same read-out for COc1cccc2c1[C@@H]1CN(CCCCn3c(=O)[nH]c4c(sc5ccc(OC(C)C)nc54)c3=O)C[C@H]1CO2 [Example 51, hydrochloride] ?
[out] 0.182 nM

[in] Same read-out for COc1cccc2c1[C@@H]1CN(CCCCn3c(=O)[nH]c4c(sc5ncc(Cl)nc54)c3=O)C[C@H]1CO2 [Example 13, hydrochloride] ?
[out] 0.0407 nM

[in] Same read-out for COc1cccc2c1[C@@H]1CN(CCCCn3c(=O)[nH]c4c(sc5c(OC)ccnc54)c3=O)C[C@@H]1CO2 [Example 18, dihydrochloride] ?
[out] 0.457 nM

---
[in] Give its Kb value. Item: COc1cccc2c1[C@@H]1CN(CCCCn3c(=O)[nH]c4c(sc5cnccc54)c3=O)C[C@@H]1CO2 [Example 29, hydrochloride]
[out] 0.501 nM

[in] Same read-out for `COc1cccc2c1[C@@H]1CN(CCCCn3c(=O)[nH]c4c(sc5c(Cl)nccc54)c3=O)C[C@@H]1CO2` ?
[out] 1.07 nM
